Item-by-item account of IC50
# assayed_target: ALPK1 (Homo sapiens (Human))
# Sequence (Q96QP1 whole entry): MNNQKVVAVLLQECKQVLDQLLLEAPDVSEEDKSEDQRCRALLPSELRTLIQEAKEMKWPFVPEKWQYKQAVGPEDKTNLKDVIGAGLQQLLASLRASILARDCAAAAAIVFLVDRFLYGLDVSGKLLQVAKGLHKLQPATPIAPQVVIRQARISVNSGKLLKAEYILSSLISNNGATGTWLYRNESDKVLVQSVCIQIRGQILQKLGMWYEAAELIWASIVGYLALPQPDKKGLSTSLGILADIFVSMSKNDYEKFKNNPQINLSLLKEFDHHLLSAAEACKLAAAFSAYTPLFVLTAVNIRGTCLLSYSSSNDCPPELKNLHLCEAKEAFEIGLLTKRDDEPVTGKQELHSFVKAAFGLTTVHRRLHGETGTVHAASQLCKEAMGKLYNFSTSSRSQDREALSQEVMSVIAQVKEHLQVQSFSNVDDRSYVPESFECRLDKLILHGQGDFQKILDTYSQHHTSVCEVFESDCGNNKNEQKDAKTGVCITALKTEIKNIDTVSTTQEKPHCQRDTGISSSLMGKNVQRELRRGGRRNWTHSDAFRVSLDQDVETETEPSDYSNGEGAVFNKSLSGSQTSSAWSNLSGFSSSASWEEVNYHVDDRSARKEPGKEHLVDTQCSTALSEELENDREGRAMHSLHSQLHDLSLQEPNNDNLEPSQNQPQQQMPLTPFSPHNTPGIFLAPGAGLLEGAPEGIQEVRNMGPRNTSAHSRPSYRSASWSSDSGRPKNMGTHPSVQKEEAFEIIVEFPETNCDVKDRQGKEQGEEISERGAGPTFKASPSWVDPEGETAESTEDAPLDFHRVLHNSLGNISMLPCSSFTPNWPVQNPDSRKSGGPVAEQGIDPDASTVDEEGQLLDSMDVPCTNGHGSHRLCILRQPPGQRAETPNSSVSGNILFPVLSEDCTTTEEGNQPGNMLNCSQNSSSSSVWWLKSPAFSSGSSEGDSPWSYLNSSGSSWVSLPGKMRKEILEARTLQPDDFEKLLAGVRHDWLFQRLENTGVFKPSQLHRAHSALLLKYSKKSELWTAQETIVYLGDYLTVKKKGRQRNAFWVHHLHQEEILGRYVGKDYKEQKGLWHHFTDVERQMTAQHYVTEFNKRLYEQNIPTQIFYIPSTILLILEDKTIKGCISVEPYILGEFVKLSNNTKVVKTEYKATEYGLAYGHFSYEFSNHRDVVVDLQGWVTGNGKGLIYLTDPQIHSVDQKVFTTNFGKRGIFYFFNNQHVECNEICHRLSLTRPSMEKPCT
# procedure_details: ALPK1 in vitro kinase assay (HTRF, TIFA phosphorylation)
# reported_conditions: ADP-Heptose activated ALPK1, TIFA substrate
parameter: IC50 (µM)

{"mol_smiles": "C#Cc1cccc2sc(NC(=O)c3c(C)cc(N4CCNCC4)cc3F)nc12", "unit_of_measurement": "µM", "result_value": 0.015}
{"mol_smiles": "O=C(Nc1nc2c(F)cc(F)cc2s1)c1c(F)cc(N2CCNCC2)cc1F", "unit_of_measurement": "µM", "result_value": 1.34}

---

Item-by-item account of inhibition at 6 µM
# assayed_target: hALPK1-V1092A (transiently transfected HEK293 cells) (Homo sapiens (Human), UniProt Q96QP1, V1092A)
# Sequence (Q96QP1 whole entry V1092A): as the sequence (Q96QP1 whole entry) above, with V1092A counted along it
# procedure_details: Inhibition of IL-8 secretion in cells expressing V1092A ALPK1 mutant
# Format: cell-based
# reported_conditions: 24 hours, relative to wild-type HEK293 cells
# Procedure: HEK293 cells were cultured as described above prior to transient transfection with either empty vector or an expression vector encoding (i) human ALPK1 (hALPK1), (ii) hALPK1 with the T237M activating mutation (hALPK1-T237M) (iii) hALPK1 with the V1092A activating mutation (hALPK1-V1092A), or (iv) a kinase dead ALPK1 mutant (hALPK1-T237M-D1194S). Transfection was performed according to manufacturer's protocols (Lipofectamine™ 3000, ThermoFisher). […]
Counter-ions that a name gives are not always drawn.

{"molecule": "COc1cccc2ccc(NC(=O)c3c(F)ccc(N4CCNCC4)c3F)nc12", "unit_of_measurement": "%", "inhibition at 6 µM": 52}
{"molecule": "COc1cccc2ccc(NC(=O)c3c(F)cc(N4CCNCC4)cc3F)nc12", "unit_of_measurement": "%", "inhibition at 6 µM": 68}
{"molecule": "C#Cc1cccc2sc(NC(=O)c3c(F)cc(N4CCNCC4)cc3F)nc12", "unit_of_measurement": "%", "inhibition at 6 µM": 95}
{"molecule": "COc1cccc2sc(NC(=O)c3c(F)cc(N4CCNCC4)cc3F)nc12 [Compound T017, hydrochloride]", "unit_of_measurement": "%", "inhibition at 6 µM": 50}
